# Measured Target: Human DGAT1 (Homo sapiens, UniProt O75907)
# Sequence (O75907 1-488): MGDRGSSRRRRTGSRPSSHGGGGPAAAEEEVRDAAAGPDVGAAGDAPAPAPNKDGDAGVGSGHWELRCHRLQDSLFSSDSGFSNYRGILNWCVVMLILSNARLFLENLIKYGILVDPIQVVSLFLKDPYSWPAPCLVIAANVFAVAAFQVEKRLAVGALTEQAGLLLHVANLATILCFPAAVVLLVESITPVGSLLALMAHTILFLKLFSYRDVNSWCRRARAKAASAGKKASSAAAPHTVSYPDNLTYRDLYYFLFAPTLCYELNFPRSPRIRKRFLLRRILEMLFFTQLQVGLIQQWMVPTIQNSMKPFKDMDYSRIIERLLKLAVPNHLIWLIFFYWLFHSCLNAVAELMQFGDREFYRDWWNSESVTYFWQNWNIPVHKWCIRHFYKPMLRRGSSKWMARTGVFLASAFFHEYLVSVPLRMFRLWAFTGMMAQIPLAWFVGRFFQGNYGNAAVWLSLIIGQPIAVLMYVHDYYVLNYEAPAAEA
pIC50: −log10 of the molar value.
Use 7 as the dividing line for pIC50, with the line itself on the true (1) side and lower values as false (0).

Some solved cases for reference:
CN1C(=O)[C@H](NC(=O)C(C)(C)NC(=O)c2ccc(F)cc2)CN(c2cc(Cl)cc(Cl)c2)c2cc(F)ccc21 [Example 59] : true (1)
CN1C(=O)[C@H](NC(=O)C2(NC(=O)c3ccccc3)CC2)CN(Cc2cc(C(F)(F)F)cc(C(F)(F)F)c2)c2ccccc21 [Example 64] : true (1)
CN1C(=O)[C@H](NC(=O)C2(NC(=O)OC(C)(C)C)CC2)CN(Cc2ccc(OC(F)(F)F)cc2)c2ccccc21 [Example 92] : true (1)
CN1C(=O)[C@H](NC(=O)C(C)(C)NC(=O)c2ccc(F)cc2)CN(c2ccc(OC(F)(F)F)cc2)c2ccc(F)cc21 [Example 1] : false (0)

Next:
Confirm if pIC50 reported for the compound Cc1cnc(C(=O)NC(C)(C)C(=O)N[C@@H]2CN(Cc3ccc(OC(F)(F)F)cc3)c3ccc(F)cc3N(C)C2=O)cn1 [Example 98] is 7 or above. false (0)
